FYI, the data here is from patent US9181258B2.

# target or test system: human PIM1 (Homo sapiens (Human), UniProt P11309)
# Sequence (P11309 whole entry): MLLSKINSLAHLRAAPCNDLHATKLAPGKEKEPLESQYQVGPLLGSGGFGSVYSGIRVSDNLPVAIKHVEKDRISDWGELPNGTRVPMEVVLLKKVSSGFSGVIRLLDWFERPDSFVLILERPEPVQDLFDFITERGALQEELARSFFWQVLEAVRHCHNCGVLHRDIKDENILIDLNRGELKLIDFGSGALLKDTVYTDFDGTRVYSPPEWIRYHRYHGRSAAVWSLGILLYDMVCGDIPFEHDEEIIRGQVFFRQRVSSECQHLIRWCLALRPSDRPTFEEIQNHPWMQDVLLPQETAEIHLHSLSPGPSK
Structures can show the parent of a compound that is named as a salt.
parameter measured: IC50
Write the numeric value and append its unit.

NCCC1CNC(=O)c2cc(-c3cccc(OC(F)(F)F)c3)c(-c3ccsc3)n21 (centres unmarked) [Compound 29, hydrochloride] ... 19 nM
NCC[C@H]1CNC(=O)c2cc(-c3cccc(OC(F)(F)F)c3)c(-c3ccc(C=O)cc3)n21 [Compound 97, hydrochloride] ... 7 nM
CS(=O)(=O)NCC[C@H]1CNC(=O)c2cc(-c3cccc(OC(F)(F)F)c3)c(-c3ccccc3)n21 ... 26 nM

Hey, quick one: what's IC50 for each of these?
1. CS(=O)(=O)c1ccc(-c2c(-c3cccc(OC(F)(F)F)c3)cc3n2[C@@H](CCNC(=N)N)CNC3=O)cc1 [Compound 149, hydrochloride]
2. NCCC1CNC(=O)c2cc(-c3cccc(OC(F)(F)F)c3)c(-c3cccc(N)c3)n21 (centres unmarked) [Compound 32, hydrochloride]
3. NCCC1CNC(=O)c2cc(-c3cccc(C(F)(F)F)c3)c(-c3ccc(CO)cc3)n21 (centres unmarked) [Compound 38, hydrochloride]
4. CS(=O)(=O)c1ccc(-c2c(-c3cccc(OC(F)(F)F)c3)cc3n2[C@@H](CCCN)CNC3=O)cc1 [Compound 109, hydrochloride]
5. CN1CCC(NC(=O)c2ccc(-c3c(-c4cccc(OC(F)(F)F)c4)cc4n3C(CCO)CNC4=O)cc2)CC1 (centres unmarked) [Compound 81, trifluoroacetate]
6. COc1c(C)cc(-c2c(-c3cccc(OC(F)(F)F)c3)cc3n2[C@@H](CCN)CNC3=O)cc1C [Compound 128, hydrochloride]
7. CCOc1ccc(-c2c(-c3cccc(OC(F)(F)F)c3)cc3n2[C@@H](CCN)CNC3=O)cc1F [Compound 127, hydrochloride]
8. Cc1cc(-c2c(-c3cccc(OC(F)(F)F)c3)cc3n2[C@@H](CCN)CNC3=O)ccc1F [Compound 122, hydrochloride]

# output
1: 8 nM; 2: 8 nM; 3: 20 nM; 4: 11 nM; 5: 11 nM; 6: 8 nM; 7: 12 nM; 8: 17 nM

Lab note: each compound below needs its IC50 filled in.
1. NCC[C@H]1CNC(=O)c2cc(-c3cccc(OC(F)(F)F)c3)c(-c3ccc(CN4CCOCC4)cc3)n21 [Compound 99, hydrochloride]
2. NCC[C@H]1CNC(=O)c2cc(-c3cccc(OC(F)(F)F)c3)c(-c3ccc(C4(N)CC4)cc3)n21 [Compound 130, hydrochloride]
3. CN1CCN(Cc2ccc(-c3c(-c4cccc(OC(F)(F)F)c4)cc4n3[C@@H](CCN)CNC4=O)cc2)CC1 [Compound 100, hydrochloride]
4. NCCC[C@H]1CNC(=O)c2cc(-c3cccc(OC(F)(F)F)c3)c(-c3ccc(CO)cc3)n21 [Compound 105, hydrochloride]
5. NCCC[C@H]1CNC(=O)c2cc(-c3cccc(OC(F)(F)F)c3)c(-c3ccccc3)n21 [Compound 102, hydrochloride]
6. NCC[C@H]1CNC(=O)c2cc(-c3cccc(OC(F)(F)F)c3)c(-c3ccsc3)n21 [Compound 85, hydrochloride]

# output
["2 nM", "1 nM", "1 nM", "16 nM", "19 nM", "12 nM"]

Take each entry in turn and give its IC50.
1. CN(C)CCNC(=O)c1ccc(-c2c(-c3cccc(OC(F)(F)F)c3)cc3n2C(CCO)CNC3=O)cc1 (centres unmarked) [Compound 78, trifluoroacetate]
2. NCCC1CNC(=O)c2cc(-c3cc(Cl)ccc3F)c(-c3ccccc3)n21 (centres unmarked) [Compound 57, hydrochloride]
3. COc1ccc(-c2c(-c3cccc(OC(F)(F)F)c3)cc3n2[C@@H](CCN)CNC3=O)cc1Cl [Compound 129, hydrochloride]

# output
1. 6 nM
2. 16 nM
3. 3 nM
